Value source: paper PMC7397174

- System: erythrocytic forms of P. falciparum (strain 3D7)
- ASSAY_EXPLANATION: Viability screening of antiplasmodial activity (SYBR-gold DNA quantification, 96 h)
- Type: cell-based, Plasmodium falciparum
- MEASUREMENT_CONTEXT: Plasmodium falciparum, 96 h; 3 µM; strain 3D7; calculated on DMSO controls; read-out: Parasitemia (3D7) at 3 µM [%]
MEASURED_METRIC: activity at 3 µM (%)
One number for each entry, in %.

Reference set (3 entries):
COMPOUND | UNITS_OF_MEASURE | activity at 3 µM
Cc1cccc(-c2c(C#N)c(N)nc3sc(C(=O)NCCC4CC4)c(N)c23)c1 | % | 40.8
CN(CCNC(=O)OC(C)(C)C)c1ccc(-c2c(C#N)c(N)nc3sc(C(=O)Nc4ccc(F)cc4)c(N)c23)c(Cl)c1 | % | 7.5
Cc1cccc(-c2c(C#N)c(N)nc3sc(C(=O)Nc4ccccc4Cl)c(N)c23)c1 | % | 51.6

Lab note: each compound below needs its activity at 3 µM filled in.
1. N#Cc1c(N)nc2sc(C(=O)Nc3cccc(Cl)c3)c(N)c2c1-c1ccc(N2CCOCC2)cc1Cl
2. CC(C)(C)OC(=O)N1CCN(c2ccc(-c3c4c(nc5sc(C(=O)Nc6ccc(Cl)cc6)c(N)c35)CCC4)c(Cl)c2)CC1 [Compound 17a]
3. Nc1c(C(=O)Nc2ccc(F)cc2)sc2nc3c(c(-c4ccccc4)c12)CCC3 [Compound 17c]
4. Cc1cccc(-c2c(C#N)c(N)nc3sc(C(=O)NC(C)C)c(N)c23)c1

1. 2.8
2. 8
3. 9.9
4. 79.8
